assay: NCI Yeast Anticancer Drug Screen. Data for the mlh1 rad18 strain (AID 175); details: S. cerevisiae mlh1 rad18 strain growth inhibition; at 50.0 µM; stronger effect = higher value
This is part of a sample that, as a whole, favours compounds with a hit. Of some 79,000 tested, about 15% had one in any assay.
Reported Property: growth inhibition (%)

[[record]]
compound = "CCCCCCCCc1cc(CN(C)C)c(O)c(C(C)(C)CC(C)(C)C)c1"
observed = 8.3

[[record]]
compound = "CC1=Nc2ccccc2NC2(C1)C(C1COC(C)(C)O1)OC1OC(C)(C)OC12 (centres undefined)"
observed = 17.9

[[record]]
compound = "CC1=Nc2ccc(C)cc2N=C(C)C1"
observed = -1.6

[[record]]
compound = "CCNC(=O)c1cc2ccccc2cc1O"
observed = 6.55

[[record]]
compound = "CC(C#N)(Nc1ccccc1)c1ccccc1 (centres undefined)"
observed = -6.4

[[record]]
compound = "COc1ccc(/C=C2\\NC(=O)NC2=O)cc1Br"
observed = 8.5

[[record]]
compound = "Cn1c2ccccc2c2nnc(N/N=C/c3cccnc3)nc21"
observed = -5.7

[[record]]
compound = "Cc1cc(C)c(NC(=O)NC2CCCCC2)c(C)c1"
observed = 31.1

[[record]]
compound = "O=c1cc(-c2ccc3ccccc3n2)oc2ccccc12"
observed = -4.2

[[record]]
compound = "O=C(Nc1cccc([N+](=O)[O-])c1)c1ccc(Cl)cc1"
observed = -3.95

[[record]]
compound = "CN(C)c1cccc([N+](=O)[O-])c1"
observed = -48.8

[[record]]
compound = "NC(=O)c1ccc2c(c1)-c1nc-2nc2[n-]c(nc3nc(nc4[n-]c(n1)c1ccc(C(N)=O)cc41)-c1ccc(C(N)=O)cc1-3)c1ccc(C(N)=O)cc21.[Co+2]"
observed = 4.35

[[record]]
compound = "Cc1cccn(C(=O)c2ccccc2)c1=N"
observed = 29.3

[[record]]
compound = "CCOC(=O)N1C=NC23C(c4ccccc4)C(c4ccccc4)C12C(=O)N(C)C(=O)N3C (centres undefined)"
observed = -30.9

[[record]]
compound = "O=c1[nH]cc([N+](=O)[O-])c(=O)[nH]1"
observed = 11.2

[[record]]
compound = "CCC(C)(O)C#CC(C)(O)CC (centres undefined)"
observed = -40.8

[[record]]
compound = "C=CCN1C(=O)CC2[C@@H]3CCc4cc(O)ccc4C3CC[C@]2(C)C1=O (some centres undefined)"
observed = 1.25

[[record]]
compound = "CC12CCC(/C(=C/N(O)/C=C3\\C(=O)C4(C)CCC3C4(C)C)C1=O)C2(C)C"
observed = 0.8

[[record]]
compound = "O=C(c1cccs1)c1ccc2ccccc2c1C(=O)O"
observed = 4.7

[[record]]
compound = "CCC(CC)OCc1ccccc1"
observed = 1.1

[[record]]
compound = "O=C(c1ccccc1)c1cc[n+]([O-])cc1"
observed = 12.7

[[record]]
compound = "C[n+]1cc(N)cc2ccccc21"
observed = -16.4

[[record]]
compound = "Nc1ncnc2c1ncn2CCCCC(=O)O"
observed = -15.3

[[record]]
compound = "O=C(CCCO)c1nc2ccccc2s1"
observed = 4.7


###

test: NCI Yeast Anticancer Drug Screen. Data for the sgs1 mgt1 strain (AID 161);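 further: 0% = growth of cultures given vehicle only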; conditions: S. cerevisiae sgs1 mgt1 strain, at 50.0 µM, stronger effect = higher value
This is part of a sample that, as a whole, favours compounds with a hit. Of some 79,000 tested, about 15% had one in any assay.
Quick reference for growth inhibition among some molecules
Reported Property: growth inhibition (%)

[[record]]
molecule = "COC(=O)c1c2c(cc3c1CCC3)CCC2"
observed = -31.8

[[record]]
molecule = "COc1ccc2cc(C(=O)CCC(=O)O)ccc2c1"
observed = -16.4

[[record]]
molecule = "NC(C(=O)O)C(F)(F)C(=O)O (configuration not stated)"
observed = -2.7

[[record]]
molecule = "Cc1cc(=O)[nH]c(NN2C(Cl)C(=O)C2c2cccc([N+](=O)[O-])c2)n1 (configuration not stated)"
observed = -0.3

[[record]]
molecule = "CCN(CC)CCNc1ccccc1"
observed = -8.55

[[record]]
molecule = "O=C(/C=C(\\N=P(c1ccccc1)(c1ccccc1)c1ccccc1)C(F)(F)C(F)(F)C(F)(F)C(F)(F)C(F)(F)C(F)(F)C(F)(F)F)c1ccccc1"
observed = -17.3

[[record]]
molecule = "NC1CC(=O)C(CC2C(=O)CC(N)CC2=O)C(=O)C1 (configuration not stated)"
observed = 3.35

[[record]]
molecule = "CCCCNC(=O)C(CCCC)C(CCC)(CCC)CCCC (configuration not stated)"
observed = -16.5

[[record]]
molecule = "O=C(O)C(CNCc1ccccc1)(c1ccccc1)c1ccccc1"
observed = 10.3

[[record]]
molecule = "Cc1c(N/C=C(\\C#N)C(=O)c2ccc(Cl)cc2)c(=O)n(-c2ccccc2)n1C"
observed = -7.25

[[record]]
molecule = "CNC(=O)OCc1c(COC(=O)NC)c(-c2ccc(C(C)(C)C)cc2)n(C)c1C"
observed = 5.5

[[record]]
molecule = "c1cc2cc(c1)CNCCNCCNCc1cccc(c1)CNCCNCCNC2"
observed = -30.6


###

assay: NCI Yeast Anticancer Drug Screen. Data for the rad50 strain (AID 155);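 further: 0% = growth of vehicle-only cultures of the same strain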; settings: S. cerevisiae rad50 strain growth inhibition; at 50.0 µM; stronger effect = higher value
About 79,000 compounds went through this panel and 15% of them were active in at least one assay; those are over-represented in the sample as a whole.
Decision: growth inhibition >= 20% yields satisfied, all other cases yield not satisfied.

[[record]]
compound = "NC(=S)c1ccc[n+]([O-])c1"
class = "not satisfied"

[[record]]
compound = "CC(C)c1ccc2c(c1)CCC1C(C)(C)[C@@H](O)CC[C@]21C (stereo partly specified)"
class = "not satisfied"

[[record]]
compound = "CO/C=C1/CCc2c(ccc3cc(OC)ccc23)C1=O"
class = "not satisfied"

[[record]]
compound = "CCOC(=O)C1=C(c2ccccc2)N=c2ccccc2=S1C (stereo unspecified)"
class = "not satisfied"

[[record]]
compound = "Cc1ccc(S(=O)(=O)N=Nc2c(O)[nH]c3c(Cl)cc(Cl)cc23)cc1"
class = "not satisfied"

[[record]]
compound = "O=C1OC(/C=C/c2ccccc2)=NC/1=C\\c1ccccc1O"
class = "not satisfied"

[[record]]
compound = "CN=C(N)N/N=C(\\c1ccccc1)c1ccc(Cl)cc1"
class = "satisfied"

[[record]]
compound = "CN(C)C(=S)S(=O)(=O)c1ccc([N+](=O)[O-])cc1"
class = "satisfied"

[[record]]
compound = "CC(=O)Oc1cc(C)c2c(c1C)C1OC(=O)C(C)C1CC2 (stereo unspecified)"
class = "not satisfied"

[[record]]
compound = "NNC(=O)C(=O)N/N=C1\\CCCC1C(=O)CCC(=O)Nc1cccc(Cl)c1 (stereo unspecified)"
class = "not satisfied"

[[record]]
compound = "O=S(=O)(N/N=C/c1ccncc1)c1ccccc1"
class = "satisfied"

[[record]]
compound = "O=C1CC2(CCCC2)CC(=O)N1"
class = "not satisfied"

[[record]]
compound = "O=C(CC(c1ccccc1)N1CCCCC1)OC(c1ccccc1)c1ccc(Br)cc1 (stereo unspecified)"
class = "not satisfied"

[[record]]
compound = "O=C1C(Cl)N(c2ccccc2[N+](=O)[O-])C1c1c[nH]c2ccccc12 (stereo unspecified)"
class = "not satisfied"

[[record]]
compound = "CC1=NC(=Cc2ccccc2O)C(=O)N1n1c(-c2ccccc2)nc2ccccc2c1=O"
class = "satisfied"

[[record]]
compound = "CSc1ncc(CO)c(Nc2ccccc2Cl)n1"
class = "not satisfied"


###

growth inhibition values by entry
test: NCI Yeast Anticancer Drug Screen. Data for the rad50 strain (AID 155);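 further: 0% = growth of vehicle-only cultures of the same strain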; conditions: S. cerevisiae rad50 strain growth inhibition; at 50.0 µM; stronger effect = higher value
The panel holds about 79,000 compounds, 15% with a hit somewhere; the sample as a whole holds those more often.
Reported Property: growth inhibition (%)

[[record]]
molecule = "c1ccc(C2=NOC3C4CCC(C4)C23)cc1 (stereo not drawn)"
observed = -37.6

[[record]]
molecule = "O=C(O)C1CCN(C(=O)Cc2c3ccccc3cc3ccccc23)CC1"
observed = 20.9

[[record]]
molecule = "COc1ccc(CC2OCCC3c4ccccc4NC23)cc1OC (stereo not drawn)"
observed = -3.2

[[record]]
molecule = "CC(=N\\N=C(c1ccccc1)c1ccccc1)/C(C)=N/N=C(c1ccccc1)c1ccccc1"
observed = -22.1

[[record]]
molecule = "Cc1c(S)cnc2ccccc12"
observed = -0.55

[[record]]
molecule = "OCc1cc(Cl)cc(Cc2cc(Cl)cc(Cc3cc(Cl)cc(Cc4cc(Cl)cc(Cc5cc(Cl)cc(CO)c5O)c4O)c3O)c2O)c1O"
observed = -14.8

[[record]]
molecule = "N#Cc1[nH]c(=O)n(-c2ccc(Cl)cc2)c1N"
observed = -30.1

[[record]]
molecule = "COc1ccc(/C=N/n2cnc3c(c2=O)S/C(=C2/SC(=S)N(c4ccc(C)cc4)C2=O)N3c2ccccc2)cc1"
observed = -29.5

[[record]]
molecule = "CC(C)C12Cc3c(ccc4ccccc34)OC1(C)Oc1ccc3ccccc3c1C2 (stereo not drawn)"
observed = 18.6

[[record]]
molecule = "COc1ccc(Cl)cc1C(c1cc(Cl)ccc1OC)C(Cl)(Cl)Cl"
observed = -7.35

[[record]]
molecule = "COc1ccc(/C=C2/C(=O)N=C(NC(C)=O)N2C)cc1OC"
observed = -13.8

[[record]]
molecule = "CCOc1ccccc1NC(C)=O"
observed = -6.5

[[record]]
molecule = "O=[N+]([O-])c1ccc(Oc2cccc3ccccc23)c([N+](=O)[O-])c1"
observed = 4.75

